test system: FCK cells; conditions: read-out: CC50 FCK; FCK cells
assay_metric: CC50

Worked cases, CC50 given:
>>> experimental_value("CNC(CC(C)C)C(=O)NC1C(=O)NC(CC(N)=O)C(=O)NC2C(=O)NC3C(=O)NC(C(=O)NC(C(=O)N(C(=O)NC4CCCCC4)C4CCCCC4)c4cc(O)cc(O)c4-c4cc3ccc4O)C(O)c3ccc(cc3)Oc3cc2cc(c3O)Oc2ccc(cc2Cl)C1O (stereo not shown)")
"> 100 µM"
>>> experimental_value("CCCCCCCCCCCCNCc1c(O)cc2c(c1O)-c1cc(ccc1O)C1NC(=O)C3NC(=O)C(CC(N)=O)NC(=O)C(NC(=O)C(CC(C)C)NC)C(O)c4ccc(c(Cl)c4)Oc4cc3cc(c4OC3OC(CO)C(O)C(O)C3OC3CC(C)(N)C(O)C(C)O3)Oc3ccc(cc3)C(OC3CC(C)(N)C(O)C(C)O3)C(NC1=O)C(=O)NC2C(=O)O (stereo not shown)")
"75 µM"
>>> experimental_value("NC(=O)CC1NC(=O)C(N)C(O)c2ccc(c(Cl)c2)Oc2cc3cc(c2O)Oc2ccc(cc2)C(O)C2NC(=O)C(NC(=O)C3NC1=O)c1ccc(O)c(c1)-c1c(O)cc(O)cc1C(C(=O)NCC13CC4CC(CC(C4)C1)C3)NC2=O (stereo not shown)")
"> 300 µM"
>>> experimental_value("CNC(CC(C)C)C(=O)NC1C(=O)NC(CC(N)=O)C(=O)NC2C(=O)NC3C(=O)NC(C(=O)NC(C(=O)NCC45CC6CC(CC(C6)C4)C5)c4cc(O)cc(O)c4-c4cc3ccc4O)C(O)c3ccc(cc3)Oc3cc2cc(c3O)Oc2ccc(cc2Cl)C1O (stereo not shown)")
"≥ 100 µM"
>>> experimental_value("NC1C(=O)NC2Cc3ccc(c(Cl)c3)Oc3cc4cc(c3O)Oc3ccc(cc3Cl)C(O)C3NC(=O)C(NC(=O)C4NC(=O)C(NC2=O)c2cc(O)cc(c2)Oc2cc1ccc2O)c1ccc(O)c(c1)-c1c(O)cc(O)cc1C(C(=O)N(C(=O)NC1CCCCC1)C1CCCCC1)NC3=O (stereo not shown)")
"62 µM"
>>> experimental_value("NC1C(=O)NC2Cc3ccc(c(Cl)c3)Oc3cc4cc(c3O)Oc3ccc(cc3Cl)C(O)C3NC(=O)C(NC(=O)C4NC(=O)C(NC2=O)c2cc(O)cc(c2)Oc2cc1ccc2O)c1ccc(O)c(c1)-c1c(cc(O)c(CNC2C4CC5CC(C4)CC2C5)c1O)C(C(=O)NC1C2CC4CC(C2)CC1C4)NC3=O (stereo not shown)")
"> 50 µM"

For the next question, use this molecule.
[ask] CC50 for CN(C)CCCNC(=O)C1NC(=O)C2NC(=O)C(NC(=O)C3NC(=O)C4NC(=O)C(Cc5ccc(c(Cl)c5)Oc5cc3cc(c5O)Oc3ccc(cc3Cl)C2O)NC(=O)C(N)c2ccc(O)c(c2)Oc2cc(O)cc4c2)c2ccc(O)c(c2)-c2c1cc(O)c(CNC1C3CC4CC(C3)CC1C4)c2O (stereo not shown) ?
[reply] > 50 µM
